Hey, just so you know, these numbers are from PubChem BioAssay (NCI).

- System: RXF 393 renal
- Measurement description: NCI-60 one-dose screen, 48 h
- Condition description: 10 µM unless noted
Compounds without any hit were thinned out: in the full panel of roughly 83,000, 20% have a hit. The source made the active and inactive calls. Rule for the calls: active = growth percent below 10; inactive = the rest.
// one of 1 (active), 0 (inactive), no free text

Compound	Label class
Cc1sc(NC(=O)c2ccc(C(C)(C)C)cc2)c(C(=O)O)c1C	0
Oc1ccc(Br)cc1/C=N/NC(=S)NC12CC3CC(CC(C3)C1)C2	1
COc1cc(-c2nn(-c3ccc(NC(=O)Nc4cc(C(F)(F)F)cc(C(F)(F)F)c4)cc3)cc2-c2ccncc2)ccc1Cl	1

Answer briefly: the call reported for O=Nc1ccc(O)c2ccccc12 in this assay.
0

Answer briefly: the call reported for CCCCCCCCCCCCCCCCNC(=S)N/N=C/c1ccc(O)cc1O in this assay.
0

Answer briefly: the call reported for CSc1nc(N)n2nccc2n1 in this assay.
0

Answer briefly: the call reported for Cc1cc(CSc2ccc(Cl)cc2)ccc1N in this assay.
0

Answer briefly: the call reported for CC(C)CSc1nc(-c2ccc(F)cc2)c(C#N)c(N2CCCCC2)n1 in this assay.
0

Answer briefly: the call reported for Nc1nc2c(c3cnccc13)C(c1cccc(Cl)c1)Cc1cnccc1-2 (stereo unspecified) in this assay.
1

Answer briefly: the call reported for Cc1ccc(S(=O)(=O)N/N=C2\CC3CCC2C3)cc1 (stereo unspecified) in this assay.
0

Answer briefly: the call reported for N#CCc1ncc(-c2ccc(C(F)(F)F)cc2)c(NC2CCCCCC2)n1 in this assay.
0

Answer briefly: the call reported for CC[N+](C)(C)N in this assay.
0

Answer briefly: the call reported for COc1cc(OC)c(NC(=O)n2ncc3cc(Nc4ncnc5ccccc45)ccc32)cc1Cl in this assay.
0

Answer briefly: the call reported for COc1cc2ncnc(-n3ncc4cc(NC(=O)Nc5ccc(Cl)c(C)c5)ccc43)c2cc1OC in this assay.
0

Answer briefly: the call reported for COc1ccc2oc(=O)cc(CN3C(=O)S/C(=C\c4ccc(Cl)cc4)C3=O)c2c1 in this assay.
0

Answer briefly: the call reported for CCC(C)C1NC(=O)C(CC(C)C)NC(=O)C(C)NC(=O)C(C(C)C)NC(=O)C(CCCCN)NC(=O)C(CC(C)C)NC(=O)C(C(C)C)NC(=O)[C@H](C)NC(=O)C(C(C)CC)NC(=O)C(CCCN=C(N)N)NC(=O)C(CCCCN)NC(=O)C(CCCN=C(N)N)NC(=O)C(CCCCN)NC(=O)C([C@H](C)CC)NC(=O)C(CCCCN)NC1=O (stereo partly specified) in this assay.
0

Answer briefly: the call reported for CC#Cc1nc(Nc2cc(C)[nH]n2)c2ccccc2n1 in this assay.
1

Answer briefly: the call reported for CCOC(=O)c1c2c(cn1Cc1ccccc1)-c1oncc1CC2 in this assay.
0

Answer briefly: the call reported for CCOC(=O)C1=C(C(F)(F)F)NC(=O)NC1CN1C(=O)c2ccccc2C1=O (stereo unspecified) in this assay.
0

Answer briefly: the call reported for CCCCCCC(C)N(CC(C)(C)O)C(=O)c1ccc([N+](=O)[O-])cc1 (stereo unspecified) in this assay.
0

Answer briefly: the call reported for COc1cccc2c1nc1cccc(OC)c1[n+]2[O-] in this assay.
1
